Below, each of the molecules is paired with its reported inhibition at 0.01 µM value.
Target: AR protein (Homo sapiens, UniProt P10275, T878A)
Construct: degradation activity of the compounds disclosed in the present disclosure on AR protein in LNCaP cells; host or cells: LNCaP FGC
Assay: Degradation of AR protein in LNCaP cells (Western blot)
Type: cell-based
Settings: LNCaP cells, compound 10 nM, 8 hours, Western blot grayscale, GAPDH internal reference; read-out: Degradation rates of the AR protein in LNCaP cells, 10 nM (%)
Respond with the bare value in %.

Example results:
INSERT INTO measurements (molecule, measurement_name, readout_unit, measured_value) VALUES
  ('N#Cc1ccc(O[C@H]2CC[C@H](NC(=O)c3ccc(N4CCN(CC(=O)N5CCC6(CC5)COc5c6ccc6c5CN(C5CCC(=O)NC5=O)C6=O)CC4)nn3)CC2)cc1Cl (some centres unmarked) [Compound 241]', 'inhibition at 0.01 µM', '%', 50),
  ('N#Cc1ccc(O[C@H]2CC[C@H](NC(=O)c3ccc(N4CCC(N5CCC(C(=O)N6CCC7(CC6)COc6c7ccc7c6CN(C6CCC(=O)NC6=O)C7=O)CC5)CC4)nn3)CC2)cc1Cl (some centres unmarked) [Compound 160]', 'inhibition at 0.01 µM', '%', 67),
  ('COC1(CN2CCC3(CC2)COc2ccc4c(c2C3)C(=O)N(C2CCC(=O)NC2=O)C4)CCN(c2ccc(C(=O)N[C@H]3CC[C@H](Oc4ccc(C#N)c(Cl)c4)CC3)nn2)CC1 (some centres unmarked) [Compound 148]', 'inhibition at 0.01 µM', '%', 38);

Input: Missing value: inhibition at 0.01 µM, AR protein (Homo sapiens, UniProt P10275, T878A), entry CCOC1(CN2CCC3(CC2)COc2c3ccc3c2C(=O)N(C2CCC(=O)NC2=O)C3=O)CCN(c2ccc(C(=O)N[C@H]3C(C)(C)[C@H](Oc4ccc(C#N)c(OC)c4)C3(C)C)cc2)CC1 (some centres unmarked) [Compound 295] . Fill in?
Output: 1

Input: For N#Cc1ccc(O[C@H]2CC[C@H](NC(=O)c3ccc(N4CCC(CN5CCC6(CC5)COc5c6ccc6c5CN(C5CCC(=O)NC5=O)C6=O)(C5CC5)CC4)nn3)CC2)cc1Cl (some centres unmarked) [Compound 238] then?
Output: 31

----------
Target: AR protein (Homo sapiens)
Construct: degradation activity of the compounds disclosed in the present disclosure on AR protein in VCaP cells; host or cells: VCaP
Test: Degradation of AR protein in VCaP cells (Western blot)
Type: cell-based
Settings: compound at 100 nM, 8 hours, read-out: Degradation rate of the AR protein in VCaP cells, 100 nM (%)
Experimental: The degradation activity of the compounds disclosed in the present disclosure on AR protein in VCaP cells (cell source: ATCC) Corresponding solvent controls were also set and cultured for 8 hours. After 8 hours of cultivation, the culture medium was removed and the cells were washed with PBS. […] The protein concentration in the extract was detected by BCA method. […] Bands were analyzed in grayscale using Image Studio software. For each sample, GAPDH protein bands were detected as internal reference. […]
Listing of entries alongside the reported inhibition at 0.1 µM.
// units = %; emit number, no label

Look over these answered cases.
INSERT INTO assay_data (molecule, measured_value) VALUES
  ('COc1cc(O[C@H]2C(C)(C)[C@H](NC(=O)c3ccc(N4CCC(CN5CC6(CCc7ccc8c(c7O6)C(=O)N(C6CCC(=O)NC6=O)C8=O)C5)CC4)cc3)C2(C)C)ccc1C#N (some centres unmarked)', -16),
  ('COc1cc(O[C@H]2C(C)(C)[C@H](NC(=O)c3ccc(N4CCC(C)(CN5CCC6(CCc7ccc8c(c7O6)C(=O)N(C6CCC(=O)NC6=O)C8=O)CC5)CC4)cc3)C2(C)C)ccc1C#N (some centres unmarked)', -32),
  ('CC1(CN2CCC3(CC2)COc2c3ccc3c2CN(C2CCC(=O)NC2=O)C3=O)CCN(c2ncc(C(=O)N[C@H]3CC[C@H](Oc4ccc(C#N)c(Cl)c4)CC3)cn2)CC1 (some centres unmarked)', 78);

Input: Given the entry N#Cc1ccc(O[C@H]2CC[C@H](NC(=O)c3ccc(N4CCC(N5CCC6(CC5)COc5c6ccc6c5CN(C5CCC(=O)NC5=O)C6=O)CC4)nn3)CC2)cc1Cl (some centres unmarked) , report its measured inhibition at 0.1 µM.
Output: 82

Input: Also N#Cc1ccc(O[C@H]2CC[C@H](NC(=O)c3ccc(N4CCC(F)(CN5CCC6(CCc7ccc8c(c7O6)CN(C6CCC(=O)NC6=O)C8=O)CC5)CC4)nn3)CC2)cc1Cl (some centres unmarked) , if possible.
Output: 60

----------
Each entry below carries its recorded inhibition at 0.01 µM.
Biological target: AR protein (Homo sapiens, UniProt P10275)
Construct: degradation activity of the compounds disclosed in the present disclosure on AR protein in VCaP cells; host or cells: VCaP
Sequence (P10275 1-920): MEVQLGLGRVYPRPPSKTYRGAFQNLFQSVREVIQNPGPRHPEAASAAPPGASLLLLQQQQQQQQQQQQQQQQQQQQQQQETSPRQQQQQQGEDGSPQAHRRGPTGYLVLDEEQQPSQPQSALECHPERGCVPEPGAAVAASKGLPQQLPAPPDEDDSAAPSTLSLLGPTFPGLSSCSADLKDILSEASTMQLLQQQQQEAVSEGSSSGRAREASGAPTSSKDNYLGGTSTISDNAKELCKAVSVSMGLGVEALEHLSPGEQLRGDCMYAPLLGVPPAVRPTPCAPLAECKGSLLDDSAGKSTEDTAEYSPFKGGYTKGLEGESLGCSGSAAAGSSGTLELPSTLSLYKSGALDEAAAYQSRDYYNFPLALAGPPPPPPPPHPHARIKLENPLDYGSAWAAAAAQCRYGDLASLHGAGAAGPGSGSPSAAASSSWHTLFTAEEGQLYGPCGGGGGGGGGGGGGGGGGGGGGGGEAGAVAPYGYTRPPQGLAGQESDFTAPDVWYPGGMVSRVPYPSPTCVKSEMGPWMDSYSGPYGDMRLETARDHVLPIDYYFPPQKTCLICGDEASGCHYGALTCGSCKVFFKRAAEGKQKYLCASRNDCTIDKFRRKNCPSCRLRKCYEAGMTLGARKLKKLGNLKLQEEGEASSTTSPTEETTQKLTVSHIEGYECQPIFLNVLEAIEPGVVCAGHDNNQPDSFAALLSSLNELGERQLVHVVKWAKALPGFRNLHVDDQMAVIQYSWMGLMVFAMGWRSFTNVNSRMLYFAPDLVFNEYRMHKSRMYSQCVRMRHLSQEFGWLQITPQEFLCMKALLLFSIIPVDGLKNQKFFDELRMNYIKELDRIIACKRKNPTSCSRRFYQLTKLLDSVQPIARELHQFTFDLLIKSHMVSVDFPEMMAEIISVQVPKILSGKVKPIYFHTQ
Experiment: Degradation of AR protein in VCaP cells (Western blot)
Assay type: cell-based
Conditions: compound at 10 nM, 8 hours, read-out: Degradation rate of the AR protein in VCaP cells, 10 nM (%)
State the value, then name its unit.

Some solved cases for reference:
INSERT INTO measurements (compound, measured_value) VALUES
  ('COCC1(CN2CCC3(CC2)COc2c3ccc3c2CN(C2CCC(=O)NC2=O)C3=O)CCN(c2ccc(C(=O)N[C@H]3CC[C@H](Oc4ccc(C#N)c(Cl)c4)CC3)nn2)CC1 (stereo partly drawn)', '60%'),
  ('CC1(CN2CC3(CCc4cc5c(cc4O3)C(=O)N(C3CCC(=O)NC3=O)C5=O)C2)CCN(c2ccc(C(=O)N[C@H]3CC[C@H](Oc4ccc(C#N)c(Cl)c4)CC3)nn2)CC1 (stereo partly drawn)', '21%');

Let us examine a further case.
Input: Using the record for N#Cc1ccc(O[C@H]2CC[C@H](NC(=O)c3ccc(N4CC(CN5CCC6(CC5)COc5cc7c(cc56)C(=O)N(C5CCC(=O)NC5=O)C7=O)C4)nn3)CC2)cc1Cl (stereo partly drawn) , report its inhibition at 0.01 µM.
Output: 77%

----------
Biological target: AR protein (Homo sapiens, UniProt P10275, T878A)
Construct: degradation activity of the compounds disclosed in the present disclosure on AR protein in LNCaP cells; host or cells: LNCaP FGC
Assay: Degradation of AR protein in LNCaP cells (Western blot)
Type: cell-based
Details: LNCaP cells, compound 10 nM, 8 hours, Western blot grayscale, GAPDH internal reference; read-out: Degradation rates of the AR protein in LNCaP cells, 10 nM (%)
Procedure: The degradation activity of the compounds disclosed in the present disclosure on AR protein in LNCaP cells (cell source: ATCC) Corresponding solvent controls were also set and cultured for 8 hours. After 8 hours of cultivation, the culture medium was removed and the cells were washed with PBS. […] The protein concentration in the extract was detected by BCA method. […] Bands were analyzed in grayscale using Image Studio software. For each sample, GAPDH protein bands were detected as internal reference. […]
Measurement name: inhibition at 0.01 µM (%)
Please reply with the bare figure in % and do not write the unit itself.

Please review the following examples before continuing.
INSERT INTO measurements (molecule, measured_value) VALUES
  ('CC1(C)[C@H](NC(=O)c2ccc(N3CCC(CN4CCC5(CC4)COc4c5ccc5c4CN(C4CCC(=O)NC4=O)C5=O)CC3)nn2)C(C)(C)[C@H]1Oc1ccc(C#N)c(Cl)c1 (some centres unmarked)', 61),
  ('COc1cc(O[C@H]2C(C)(C)[C@H](NC(=O)c3ccc(N4CCC(F)(CN5CCC6(CC5)COc5c6ccc6c5C(=O)N(C5CCC(=O)NC5=O)C6=O)CC4)cc3)C2(C)C)ccc1C#N (some centres unmarked)', 30),
  ('COc1cc(O[C@H]2C(C)(C)[C@H](NC(=O)c3ccc(N4CCC(C)(CN5CC6(CCc7cc8c(cc7O6)C(=O)N(C6CCC(=O)NC6=O)C8)C5)CC4)cc3)C2(C)C)ccc1C#N (some centres unmarked)', 66),
  ('COc1cc(O[C@H]2C(C)(C)[C@H](NC(=O)c3ccc(N4CCC(F)(CN5CCC6(CC5)COc5cc7c(cc56)C(=O)N(C5CCC(=O)NC5=O)C7=O)CC4)cc3)C2(C)C)ccc1C#N (some centres unmarked)', 2),
  ('COc1cc(O[C@H]2C(C)(C)[C@H](NC(=O)c3ccc(N4CCC(C)(CN5CCC6(CC5)COc5c6ccc6c5CN(C5CCC(=O)NC5=O)C6=O)CC4)cc3)C2(C)C)ccc1C#N (some centres unmarked)', 24),
  ('C[C@H]1CN(c2ccc(C(=O)N[C@H]3CC[C@H](Oc4ccc(C#N)c(Cl)c4)CC3)nn2)C[C@@H]1CN1CCC2(CC1)COc1c2ccc2c1CN(C1CCC(=O)NC1=O)C2=O (some centres unmarked)', 79);

Input: So what does the record say about inhibition at 0.01 µM for N#Cc1ccc(O[C@H]2CC[C@H](NC(=O)c3ccc(N4CC5(CCC(N6CCC7(CC6)COc6cc8c(cc6C7)C(=O)N(C6CCC(=O)NC6=O)C8=O)CC5)C4)nn3)CC2)cc1Cl (some centres unmarked) ?
Output: 36

Input: Next up: COc1cc(O[C@H]2CC[C@H](NC(=O)c3ccc(N4CCC(O)(CN5CCC6(CC5)COc5c6ccc6c5C(=O)N(C5CCC(=O)NC5=O)C6=O)CC4)nn3)CC2)ccc1C#N (some centres unmarked)
Output: 86

Input: // same read-out, input: COc1cc(O[C@H]2C(C)(C)[C@H](NC(=O)c3ccc(N4CCC(C)(CN5CC6(CCc7cc8c(cc7O6)C(=O)N(C6CCC(=O)NC6=O)C8=O)C5)CC4)cc3)C2(C)C)ccc1C#N (some centres unmarked)
Output: 9

Input: Also need COc1cc(O[C@H]2CC[C@H](NC(=O)c3ccc(N4CCC(C#N)(CN5CCC6(CC5)COc5c6ccc6c5C(=O)N(C5CCC(=O)NC5=O)C6=O)CC4)nn3)CC2)ccc1C#N (some centres unmarked) , thanks.
Output: 49

Input: // query: N#Cc1ccc(O[C@H]2CC[C@H](NC(=O)c3ccc(N4CC5(CCC(N6CCC7(CCc8cc9c(cc8O7)C(=O)N(C7CCC(=O)NC7=O)C9=O)CC6)CC5)C4)nn3)CC2)cc1Cl (some centres unmarked)
Output: 27

Input: Next up: COc1cc(O[C@H]2C(C)(C)[C@H](NC(=O)c3ccc(N4CCC(F)(CN5CCC6(CC5)COc5c6ccc6c5CN(C5CCC(=O)NC5=O)C6=O)CC4)cc3)C2(C)C)ccc1C#N (some centres unmarked)
Output: 27

Input: Same for N#Cc1ccc(O[C@H]2CC[C@H](NC(=O)c3ccc(N4CC(N5CCC6(CC5)COc5c6ccc6c5C(=O)N(C5CCC(=O)NC5=O)C6=O)C4)nn3)CC2)cc1Cl (some centres unmarked)
Output: 29

Input: Now consider N#Cc1ccc(O[C@H]2CC[C@H](NC(=O)c3ccc(N4CCC5(CCC(N6CCC7(CC6)COc6ccc8c(c6C7)C(=O)N(C6CCC(=O)NC6=O)C8)CC5)CC4)nn3)CC2)cc1Cl (some centres unmarked) and answer again.
Output: 1

Input: Input CC1(CN2CC3(CCc4cc5c(cc4O3)C(=O)N(C3CCC(=O)NC3=O)C5=O)C2)CCN(c2ccc(C(=O)N[C@H]3CC[C@H](Oc4ccc(C#N)c(Cl)c4)CC3)nn2)CC1 (some centres unmarked)
Output: 66

Input: And what about the molecule N#Cc1ccc(O[C@H]2CC[C@H](NC(=O)c3ccc(N4CCC5(CC4)CC(N4CCC6(CC4)COc4c(ccc7c4C(=O)N(C4CCC(=O)NC4=O)C7)C6)C5)nn3)CC2)cc1Cl (some centres unmarked) ?
Output: 68
